Target: Her2 exon 20 YVMA insertion (A775_G776ins YVMA) (Homo sapiens (Human), UniProt P04626, INS775YVMA)
Sequence (P04626 other isoform, or with tags, fused parts or gaps ins YVMA behind 775): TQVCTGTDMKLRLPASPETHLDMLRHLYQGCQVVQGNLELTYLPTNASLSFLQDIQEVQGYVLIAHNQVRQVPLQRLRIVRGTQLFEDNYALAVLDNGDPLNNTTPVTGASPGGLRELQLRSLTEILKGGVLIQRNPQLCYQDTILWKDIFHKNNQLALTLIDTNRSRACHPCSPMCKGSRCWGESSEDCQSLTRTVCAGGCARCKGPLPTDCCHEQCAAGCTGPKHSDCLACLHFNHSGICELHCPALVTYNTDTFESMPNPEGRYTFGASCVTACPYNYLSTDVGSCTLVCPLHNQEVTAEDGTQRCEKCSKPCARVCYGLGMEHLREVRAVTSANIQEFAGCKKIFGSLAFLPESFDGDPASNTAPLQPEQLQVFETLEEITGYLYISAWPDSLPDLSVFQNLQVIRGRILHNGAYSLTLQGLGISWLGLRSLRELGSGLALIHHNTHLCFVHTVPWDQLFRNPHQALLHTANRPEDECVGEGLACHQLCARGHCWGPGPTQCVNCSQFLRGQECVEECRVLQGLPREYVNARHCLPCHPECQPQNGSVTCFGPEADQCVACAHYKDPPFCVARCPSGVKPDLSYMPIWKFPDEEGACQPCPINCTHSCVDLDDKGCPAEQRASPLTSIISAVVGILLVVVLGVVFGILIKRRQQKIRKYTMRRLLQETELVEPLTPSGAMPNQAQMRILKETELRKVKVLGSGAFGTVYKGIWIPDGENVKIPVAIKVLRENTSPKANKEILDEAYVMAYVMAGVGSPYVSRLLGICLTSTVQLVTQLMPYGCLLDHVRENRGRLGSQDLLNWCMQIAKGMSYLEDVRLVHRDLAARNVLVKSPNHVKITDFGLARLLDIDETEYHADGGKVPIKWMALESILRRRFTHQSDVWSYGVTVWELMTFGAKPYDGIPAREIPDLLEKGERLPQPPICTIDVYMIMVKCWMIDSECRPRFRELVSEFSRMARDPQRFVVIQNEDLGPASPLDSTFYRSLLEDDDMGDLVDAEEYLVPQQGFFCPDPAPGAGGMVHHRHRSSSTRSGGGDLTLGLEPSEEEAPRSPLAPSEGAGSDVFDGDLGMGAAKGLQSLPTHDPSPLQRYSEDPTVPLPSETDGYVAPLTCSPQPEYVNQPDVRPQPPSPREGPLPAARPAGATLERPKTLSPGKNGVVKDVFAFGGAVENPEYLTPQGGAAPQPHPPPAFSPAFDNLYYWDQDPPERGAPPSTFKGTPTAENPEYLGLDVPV
Assay: Ba/F3-Her2 Exon20 YVMA cell anti-proliferative assay (CellTiter 96 MTS, 72 h)
Settings: Ba/F3-Her2 Exon20 YVMA cells
measurement-name: IC50

Some solved cases for reference:
• C=CC(=O)Nc1cc(Nc2ncc(C(=O)OC(C)C)c(-c3cn(C4CC4)c4ccccc34)n2)c(OC)cc1N(C)CCN(C)C [Example 79] = 100 to 500 nM
• C=CC(=O)Nc1cc(Nc2ncc(C(=O)OCC#N)c(-c3cn(C)c4ccccc34)n2)c(OC)cc1N(C)CCN(C)C [Example 38] = < 100 nM
• C=CC(=O)Nc1cc(Nc2ncc(C(=O)OC(C)C)c(-c3cn(C)c4ccccc34)n2)c(OC)cc1N(C)C[C@@H]1CCCN1 [Example 73] = < 100 nM
• C=CC(=O)Nc1cc(Nc2ncc(C(=O)OC)c(-n3ccc4ccccc43)n2)c(OC)cc1N(C)C[C@H]1CCCN1C [Example 63] = 500 to 1000 nM
• C=CC(=O)Nc1cc(Nc2ncc(C(=O)OC(C)C)c(-c3nn(C)c4ccccc34)n2)c(OC)cc1N(C)CCN(C)C [Example 59] = < 100 nM
• C=CC(=O)Nc1cc(Nc2ncc(NC(=O)C(C)(C)C)c(-c3cn(C)c4ccccc34)n2)c(OC)cc1N(C)CCN(C)C [Example 41] = > 1000 nM

For the next question, use this molecule.
Given item C=CC(=O)Nc1cc(Nc2nccc(-c3c(C#N)n(C)c4ccccc34)n2)c(OC)cc1N(C)CCN(C)C [Example 88] , the value recorded as its IC50 is 100 to 500 nM

----------
List of IC50 values.
Biological target: Her2 exon 20 YVMA insertion (A775_G776ins YVMA) (Homo sapiens (Human), UniProt P04626, INS775YVMA)
Assay: Ba/F3-Her2 Exon20 YVMA cell anti-proliferative assay (CellTiter 96 MTS, 72 h)
Settings: Ba/F3-Her2 Exon20 YVMA cells

* C=CC(=O)Nc1cc(Nc2ncc(C(=O)OC(C)C)c(-c3coc4ccccc34)n2)c(OC)cc1N(C)C[C@H]1CCCN1C | 100 to 500 nM
* C=CC(=O)Nc1cc(Nc2nccc(-c3c(C(=O)OC)n(C)c4ccccc34)n2)c(OC)cc1N(C)CCN(C)C | 500 to 1000 nM
* C=CC(=O)Nc1cc(Nc2ncc(Cl)c(-c3c[nH]c4ccccc34)n2)c(OC)cc1N(C)CCN(C)C | < 100 nM

Notebook: C=CC(=O)Nc1cc(Nc2ncc(C(=O)OC(C)C)c(-c3cnn4ccccc34)n2)c(OC)cc1N(C)CCN(C)C , IC50 read as < 100 nM

Record summary for C=CC(=O)Nc1cc(Nc2nccc(-c3cn(C)c4cccc(C(=O)OC)c34)n2)c(OC)cc1N(C)CCN(C)C : reported IC50 = > 1000 nM

Query C=CC(=O)Nc1cc(Nc2ncc(Cl)c(-c3cn(C)c4c5c(ccc34)CCC5)n2)c(OC)cc1N(C)CCN(C)C yields IC50 of 100 to 500 nM

For record C=CC(=O)Nc1cc(Nc2ncc(CC)c(-c3cn(CC(=O)NC)c4ccccc34)n2)c(OC)cc1N(C)CCN(C)C the listed IC50 is 100 to 500 nM

----------
Target: human EGFR L858R and T790M double mutation (LT) (Homo sapiens (Human), UniProt P00533, L858R/T790M)
Sequence (P00533 25-1210 T790M/L858R): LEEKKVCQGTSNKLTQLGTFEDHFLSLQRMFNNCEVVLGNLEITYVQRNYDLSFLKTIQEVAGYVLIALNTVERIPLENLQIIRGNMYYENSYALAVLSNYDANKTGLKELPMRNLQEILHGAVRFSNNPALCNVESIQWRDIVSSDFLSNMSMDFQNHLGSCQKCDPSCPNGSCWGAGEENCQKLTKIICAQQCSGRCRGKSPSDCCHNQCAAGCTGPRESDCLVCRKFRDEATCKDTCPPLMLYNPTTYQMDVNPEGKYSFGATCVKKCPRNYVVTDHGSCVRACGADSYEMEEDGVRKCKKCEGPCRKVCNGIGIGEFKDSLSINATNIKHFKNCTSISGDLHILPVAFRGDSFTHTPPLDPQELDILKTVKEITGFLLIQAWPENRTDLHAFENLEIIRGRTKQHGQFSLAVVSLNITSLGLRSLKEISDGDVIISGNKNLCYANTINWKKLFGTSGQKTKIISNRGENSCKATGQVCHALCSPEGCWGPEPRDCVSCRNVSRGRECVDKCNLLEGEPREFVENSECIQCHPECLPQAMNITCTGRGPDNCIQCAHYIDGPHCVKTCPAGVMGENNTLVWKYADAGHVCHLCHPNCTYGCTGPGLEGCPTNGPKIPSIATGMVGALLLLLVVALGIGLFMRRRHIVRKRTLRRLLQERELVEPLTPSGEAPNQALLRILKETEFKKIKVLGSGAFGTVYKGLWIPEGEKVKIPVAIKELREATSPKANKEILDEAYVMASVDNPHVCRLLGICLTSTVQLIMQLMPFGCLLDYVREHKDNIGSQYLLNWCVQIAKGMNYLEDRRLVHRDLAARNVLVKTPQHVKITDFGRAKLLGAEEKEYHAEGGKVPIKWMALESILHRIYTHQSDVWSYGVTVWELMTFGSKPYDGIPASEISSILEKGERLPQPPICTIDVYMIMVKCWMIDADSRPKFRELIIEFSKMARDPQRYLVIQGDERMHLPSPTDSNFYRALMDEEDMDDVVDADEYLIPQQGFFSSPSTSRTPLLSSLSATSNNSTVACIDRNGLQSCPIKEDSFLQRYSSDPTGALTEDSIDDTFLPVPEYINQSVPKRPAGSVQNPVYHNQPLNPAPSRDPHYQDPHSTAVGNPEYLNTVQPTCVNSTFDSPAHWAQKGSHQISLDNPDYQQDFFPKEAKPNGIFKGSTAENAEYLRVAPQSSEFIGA
Experiment: Ba/F3-EGFR L858R/T790M cell anti-proliferative assay (CellTiter 96 MTS, 72 h);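 also: Ba/F3 cells carrying the EGFR L858R/T790M double mutant are able to grow without IL-3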
Conditions: Ba/F3-EGFR L858R/T790M cells; read-out: EGFR exon 21 L858R and T790M mutation IC50
Property: IC50; scope: individual compounds

Check out these entries, answers already filled in.
* C=CC(=O)Nc1cc(Nc2ncc(C(=O)OC(C)C)c(-c3cn(C)c4ccccc34)n2)c(OC)cc1OCCN(C)C | < 100 nM
* C=CC(=O)Nc1cc(Nc2ncc(NC(=O)NC)c(-c3cn(C)c4ccccc34)n2)c(OC)cc1N(C)CCN(C)C | > 1000 nM
* C=CC(=O)Nc1cc(Nc2ncc(C(=O)OC(C)C)c(-c3c[nH]c4ncccc34)n2)c(OC)cc1N(C)CCN(C)C | < 100 nM

Measured IC50, C=CC(=O)Nc1cc(Nc2nccc(-c3cn(C)c4c(C(=O)OC(C)C)cccc34)n2)c(OC)cc1N(C)CCN(C)C : < 100 nM

# IC50 (compound: C=CC(=O)Nc1cc(Nc2ncc(CC)c(-c3cn(CC(N)=O)c4ccccc34)n2)c(OC)cc1N(C)CCN(C)C ) is < 100 nM

Looking up C=CC(=O)Nc1cc(Nc2nccc(-c3cn(C)c4cc(C(=O)OC(C)C)ccc34)n2)c(OC)cc1N(C)CCN(C)C , I see its IC50 listed as < 100 nM

----------
# pIC50 annotations
Target: Her2 exon 20 YVMA insertion (A775_G776ins YVMA) (Homo sapiens (Human), UniProt P04626, INS775YVMA)
Assay: Ba/F3-Her2 Exon20 YVMA cell anti-proliferative assay (CellTiter 96 MTS, 72 h)
Conditions: Ba/F3-Her2 Exon20 YVMA cells
pIC50: −log10 of the molar value.

* C=CC(=O)Nc1cc(Nc2ncc(C(=O)OCC)c(-c3cn(C)c4ccccc34)n2)c(OC)cc1N(C)CCN(C)C | > 7.00
* C=CC(=O)Nc1cc(Nc2nccc(-c3cn(C)c4c(C(=O)OC(C)C)cccc34)n2)c(OC)cc1N(C)CCN(C)C | 6.30 to 7.00
* C=CC(=O)Nc1cc(Nc2ncc(Cl)c(-c3cnn4ccccc34)n2)c(OC)cc1N(C)CCN1CCN(C)CC1 | < 6.00

Just so you know, measured pIC50 for C=CC(=O)Nc1cc(Nc2ncc(C(=O)OC(C)C)c(-c3cn(CC)c4ccccc34)n2)c(OC)cc1N(C)CCN(C)C came out at > 7.00

----------
Target: human EGFR exon 20 insertion ASV (V769_D770insASV) (Homo sapiens (Human), UniProt P00533, INS769ASV)
Sequence (P00533 other isoform, or with tags, fused parts or gaps ins ASV behind 769): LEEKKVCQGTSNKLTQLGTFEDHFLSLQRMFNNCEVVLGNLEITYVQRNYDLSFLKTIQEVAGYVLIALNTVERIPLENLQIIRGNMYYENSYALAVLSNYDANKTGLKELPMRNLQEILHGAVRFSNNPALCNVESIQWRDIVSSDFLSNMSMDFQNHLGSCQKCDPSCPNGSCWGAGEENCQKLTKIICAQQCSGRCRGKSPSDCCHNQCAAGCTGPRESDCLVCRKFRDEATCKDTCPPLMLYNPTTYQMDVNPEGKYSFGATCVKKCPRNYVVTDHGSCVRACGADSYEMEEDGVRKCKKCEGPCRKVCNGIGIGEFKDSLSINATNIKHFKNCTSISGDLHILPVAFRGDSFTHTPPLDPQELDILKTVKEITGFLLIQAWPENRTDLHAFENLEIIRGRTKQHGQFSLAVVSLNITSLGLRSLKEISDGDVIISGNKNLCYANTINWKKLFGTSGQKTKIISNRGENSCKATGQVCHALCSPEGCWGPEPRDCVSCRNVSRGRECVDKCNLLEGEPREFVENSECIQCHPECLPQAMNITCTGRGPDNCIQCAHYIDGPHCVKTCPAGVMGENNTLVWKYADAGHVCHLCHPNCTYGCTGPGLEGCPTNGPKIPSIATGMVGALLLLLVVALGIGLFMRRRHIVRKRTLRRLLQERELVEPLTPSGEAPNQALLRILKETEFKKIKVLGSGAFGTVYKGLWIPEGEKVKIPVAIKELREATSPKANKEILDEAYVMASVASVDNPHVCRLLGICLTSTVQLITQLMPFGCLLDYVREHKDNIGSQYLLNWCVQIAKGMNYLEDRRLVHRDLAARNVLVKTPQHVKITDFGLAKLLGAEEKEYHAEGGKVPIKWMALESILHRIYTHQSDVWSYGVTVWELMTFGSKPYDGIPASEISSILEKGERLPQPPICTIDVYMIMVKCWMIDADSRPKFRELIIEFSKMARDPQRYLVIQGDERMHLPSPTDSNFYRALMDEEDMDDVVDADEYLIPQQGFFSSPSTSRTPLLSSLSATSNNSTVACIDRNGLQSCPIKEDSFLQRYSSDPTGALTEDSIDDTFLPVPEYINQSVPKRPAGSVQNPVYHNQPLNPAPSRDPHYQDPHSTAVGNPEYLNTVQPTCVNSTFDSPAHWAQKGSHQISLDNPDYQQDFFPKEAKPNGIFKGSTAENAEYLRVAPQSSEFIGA
Test: Ba/F3-EGFR-Exon20-ASV cell anti-proliferative assay (CellTiter 96 MTS, 72 h)
Settings: Ba/F3-EGFR-Exon20-ASV cells
measurement-name: IC50

Answered examples (4):
* C=CC(=O)Nc1cc(Nc2ncc(C(=O)OC(C)C)c(-c3cn(C)c4ncccc34)n2)c(OC)cc1N(C)CCNC | < 100 nM
* C=CC(=O)Nc1cc(Nc2ncc(C(=O)OC(C)C)c(-c3cn(C)c4ccccc34)n2)c(OC)cc1N(C)C[C@@H]1CCCN1C | < 100 nM
* C=CC(=O)Nc1cc(Nc2ncc(C(=O)OCC)c(-c3cn(C)c4ccccc34)n2)c(OC)cc1N(C)CCN(C)C | < 100 nM
* C=CC(=O)Nc1cc(Nc2ncc(Cl)c(-c3cnn4ccccc34)n2)c(OC)cc1OCCN(C)C | 100 to 500 nM

Now for the molecule whose IC50 we want.
Query C=CC(=O)Nc1cc(Nc2ncnc(-c3c(C4=CCOCC4)n(C)c4ccccc34)n2)c(OC)cc1N(C)CCN(C)C yields IC50 of < 100 nM

----------
Molecular target: human EGFR exon 20 insertion ASV (V769_D770insASV) (Homo sapiens (Human), UniProt P00533, INS769ASV)
Test: Ba/F3-EGFR-Exon20-ASV cell anti-proliferative assay (CellTiter 96 MTS, 72 h);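 also: Ba/F3 cells bearing the EGFR exon 20 ASV insertion, a line able to proliferate without IL-3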
Settings: Ba/F3-EGFR-Exon20-ASV cells
pIC50: −log10 of the molar value.
Item-by-item account of pIC50

• C=CC(=O)Nc1cc(Nc2ncc(Cl)c(-c3c[nH]c4ccccc34)n2)c(OC)cc1N(C)CCN(C)C [Example 56] = > 7.00
• C=CC(=O)Nc1cc(Nc2ncc(NC(=O)CC)c(-c3nn(C)c4ccccc34)n2)c(OC)cc1N(C)CCN(C)C [Example 60] = > 7.00
• C=CC(=O)Nc1cc(Nc2ncc(Cl)c(-c3cnn4ccccc34)n2)c(OC)cc1N1CCC(N(C)C)C1 (stereo not shown) [Example 55] = < 6.00
• C=CC(=O)Nc1cc(Nc2ncc(CC)c(-c3cn(CC(=O)NC)c4ccccc34)n2)c(OC)cc1N(C)CCN(C)C [Example 72] = > 7.00
• C=CC(=O)Nc1cc(Nc2nccc(-c3cn(C)c4cc(C(=O)OC(C)C)ccc34)n2)c(OC)cc1N(C)CCN(C)C [Example 84] = 6.00 to 6.30
• C=CC(=O)Nc1cc(Nc2ncc(C(=O)OC(C)C)c(-c3coc4ccccc34)n2)c(OC)cc1N(C)C[C@H]1CCCN1C [Example 62] = > 7.00

Next molecule, pIC50 to be filled in.
Please fill in: pIC50 reported for C=CC(=O)Nc1cc(Nc2nccc(-c3cn(C)c4cc(C#N)ccc34)n2)c(OC)cc1N(C)CCN(C)C [Example 89] = > 7.00

Origin of the recorded values: patent US10227342B2
